The reported numbers originate from ChEMBL document CHEMBL5230129.

Measured MIC, listed per entry.
# Test system: Bacillus
# method.summary: Antibacterial activity against Bacillus assessed as inhibition of bacterial growth by broth micro dilution assay
# Format: functional

| molecule | MIC, µg/mL |
| --- | --- |
| Cc1ccc2c(C3NNC(=O)N3)cc(=O)oc2c1C (stereo not drawn) | 3.12 |
| O=C(O)c1cn(C2CC2)c2cc(N3CCNCC3)c(F)cc2c1=O | 2 |
| COc1ccc2oc(=O)cc(C3NNC(=O)N3)c2c1 (stereo not drawn) | 0.8 |
| O=C1NNC(c2cc(=O)oc3ccc(Cl)cc23)N1 (stereo not drawn) | 6.25 |
| Cc1cc(C)c2c(C3NNC(=O)N3)cc(=O)oc2c1 (stereo not drawn) | 6.25 |
| Cc1ccc2oc(=O)cc(C3NNC(=O)N3)c2c1 (stereo not drawn) | 0.8 |
| Cc1ccc2c(C3NNC(=O)N3)cc(=O)oc2c1 (stereo not drawn) | 1.6 |
| COc1ccc2c(C3NNC(=O)N3)cc(=O)oc2c1 (stereo not drawn) | 3.12 |
